# target-or-test-system: T1, human complement C3b protein (human, UniProt P01024 23-667; P01024 749-1663)
# T1 construct: Purified plasma C3b (Complement Technology, Quidel); Depending on the assay it was captured by an anti-C3d antibody, coated, biotinylated or coupled to beads; also called human C3b; huC3b
# T1 sequence (P01024 23-667 P314L, chain 1 of 2): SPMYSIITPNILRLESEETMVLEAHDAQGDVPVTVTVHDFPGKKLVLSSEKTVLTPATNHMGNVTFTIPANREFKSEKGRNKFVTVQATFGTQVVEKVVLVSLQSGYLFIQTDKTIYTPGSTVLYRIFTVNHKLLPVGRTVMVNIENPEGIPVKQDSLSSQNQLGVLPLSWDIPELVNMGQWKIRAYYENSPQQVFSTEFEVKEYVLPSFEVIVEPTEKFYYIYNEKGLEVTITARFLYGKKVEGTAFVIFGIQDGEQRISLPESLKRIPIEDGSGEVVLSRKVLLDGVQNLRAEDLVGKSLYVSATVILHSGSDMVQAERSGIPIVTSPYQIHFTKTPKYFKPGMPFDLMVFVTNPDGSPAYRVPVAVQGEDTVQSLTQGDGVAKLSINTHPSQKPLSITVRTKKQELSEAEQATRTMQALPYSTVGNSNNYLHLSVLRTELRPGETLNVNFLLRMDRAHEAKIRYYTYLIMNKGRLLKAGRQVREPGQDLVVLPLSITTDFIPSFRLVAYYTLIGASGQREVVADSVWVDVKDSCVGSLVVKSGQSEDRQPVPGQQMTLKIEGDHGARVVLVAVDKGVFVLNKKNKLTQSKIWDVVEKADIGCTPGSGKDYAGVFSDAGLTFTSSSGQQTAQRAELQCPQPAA
# T1 sequence (P01024 749-1663, chain 2 of 2): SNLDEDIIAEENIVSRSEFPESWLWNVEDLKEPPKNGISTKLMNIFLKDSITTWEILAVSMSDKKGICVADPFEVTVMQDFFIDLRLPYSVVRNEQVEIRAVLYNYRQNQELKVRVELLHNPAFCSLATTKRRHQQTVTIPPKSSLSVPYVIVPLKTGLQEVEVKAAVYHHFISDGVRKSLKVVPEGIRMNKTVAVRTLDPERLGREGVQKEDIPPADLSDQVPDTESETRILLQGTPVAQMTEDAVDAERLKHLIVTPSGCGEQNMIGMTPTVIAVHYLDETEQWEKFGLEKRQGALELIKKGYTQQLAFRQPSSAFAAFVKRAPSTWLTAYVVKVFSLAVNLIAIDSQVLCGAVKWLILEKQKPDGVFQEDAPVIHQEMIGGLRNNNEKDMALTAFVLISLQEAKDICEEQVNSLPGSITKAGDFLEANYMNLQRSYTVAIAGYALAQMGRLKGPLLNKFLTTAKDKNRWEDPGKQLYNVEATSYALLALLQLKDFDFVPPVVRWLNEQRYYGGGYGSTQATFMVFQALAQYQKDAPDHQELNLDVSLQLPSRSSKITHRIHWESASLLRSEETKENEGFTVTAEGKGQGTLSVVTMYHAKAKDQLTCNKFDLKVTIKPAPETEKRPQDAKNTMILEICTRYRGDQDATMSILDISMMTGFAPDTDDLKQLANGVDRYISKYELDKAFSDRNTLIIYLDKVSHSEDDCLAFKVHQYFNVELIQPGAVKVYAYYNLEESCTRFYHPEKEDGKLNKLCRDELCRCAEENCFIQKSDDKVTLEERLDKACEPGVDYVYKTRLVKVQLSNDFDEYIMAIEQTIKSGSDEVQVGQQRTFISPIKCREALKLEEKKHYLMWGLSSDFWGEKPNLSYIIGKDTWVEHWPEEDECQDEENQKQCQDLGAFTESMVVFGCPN
# experimental-protocol: bead proximity assay, C3b-acceptor beads; competitor biotinylated fH
quantity-kind: IC50 (pM)
# unit: pM | format: bare number

Enquiry: Form field: reported IC50 of MOR09398 Fab (Fab, V domains shown, also called Fab 9398) VH: QVQLVESGGGLVQPGGSLRLSCAASGFTFSSYWMTWVRQAPGKGLEWVSSIKIKPDGYAASVKGRFTISRDNSKNTLYLQMNSLRAEDTAVYYCARLFYQYFARMDYWGQGTLVTVSS VL: DIQMTQSPSSLSASVGDRVTITCRASQDISNYLNWYQQKPGKAPKLLIYAASNLQSGVPSRFSGSGSGTDFTLTISSLQPEDFATYYCQQWDSFSPTFGQGTKVEIKR
Return: 100

Enquiry: Form field: reported IC50 of MOR09423 Fab (Fab, V domains shown, also called Fab 9423) VH: QVQLVQSGAEVKKPGASVKVSCKASGYTFTGYYINWVRQAPGQGLEWMGIISPNQGTTGYAQKFQGRVTMTRDTSISTAYMELSSLRSEDTAVYYCARGNYDHLDYWGQGTLVTVSS VL: DIQMTQSPSSLSASVGDRVTITCRASQGISNYLNWYQQKPGKAPKLLIYDASTLQSGVPSRFSGSGSGTDFTLTISSLQPEDFATYYCQQDWHTLPVTFGQGTKVEIKR
Return: 80

Enquiry: Entry MOR09124 Fab (Fab, V domains shown, HCDR2-matured derivative of parental MOR08305) VH: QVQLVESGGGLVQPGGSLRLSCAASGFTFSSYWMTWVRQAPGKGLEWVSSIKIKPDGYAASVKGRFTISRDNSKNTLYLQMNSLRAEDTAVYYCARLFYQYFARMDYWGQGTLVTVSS VL: DIQMTQSPSSLSASVGDRVTITCRASQDISNYLNWYQQKPGKAPKLLIYAASNLQSGVPSRFSGSGSGTDFTLTISSLQPEDFATYYCQQYDSYSPTFGQGTKVEIKR : reported IC50 = ?
Return: 1000

Enquiry: Which value of IC50 has been reported for MOR09397 Fab (Fab, V domains shown, also called Fab 9397) VH: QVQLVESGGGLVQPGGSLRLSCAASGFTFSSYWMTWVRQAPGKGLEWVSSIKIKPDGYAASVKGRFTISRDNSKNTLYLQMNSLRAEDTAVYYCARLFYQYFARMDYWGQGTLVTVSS VL: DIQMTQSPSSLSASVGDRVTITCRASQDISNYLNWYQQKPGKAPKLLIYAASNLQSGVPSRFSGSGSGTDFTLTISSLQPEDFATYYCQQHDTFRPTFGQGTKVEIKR in the records?
Return: 100
